measurement target: HPK1 (Homo sapiens (Human), UniProt Q92918)
Sequence (Q92918 whole entry): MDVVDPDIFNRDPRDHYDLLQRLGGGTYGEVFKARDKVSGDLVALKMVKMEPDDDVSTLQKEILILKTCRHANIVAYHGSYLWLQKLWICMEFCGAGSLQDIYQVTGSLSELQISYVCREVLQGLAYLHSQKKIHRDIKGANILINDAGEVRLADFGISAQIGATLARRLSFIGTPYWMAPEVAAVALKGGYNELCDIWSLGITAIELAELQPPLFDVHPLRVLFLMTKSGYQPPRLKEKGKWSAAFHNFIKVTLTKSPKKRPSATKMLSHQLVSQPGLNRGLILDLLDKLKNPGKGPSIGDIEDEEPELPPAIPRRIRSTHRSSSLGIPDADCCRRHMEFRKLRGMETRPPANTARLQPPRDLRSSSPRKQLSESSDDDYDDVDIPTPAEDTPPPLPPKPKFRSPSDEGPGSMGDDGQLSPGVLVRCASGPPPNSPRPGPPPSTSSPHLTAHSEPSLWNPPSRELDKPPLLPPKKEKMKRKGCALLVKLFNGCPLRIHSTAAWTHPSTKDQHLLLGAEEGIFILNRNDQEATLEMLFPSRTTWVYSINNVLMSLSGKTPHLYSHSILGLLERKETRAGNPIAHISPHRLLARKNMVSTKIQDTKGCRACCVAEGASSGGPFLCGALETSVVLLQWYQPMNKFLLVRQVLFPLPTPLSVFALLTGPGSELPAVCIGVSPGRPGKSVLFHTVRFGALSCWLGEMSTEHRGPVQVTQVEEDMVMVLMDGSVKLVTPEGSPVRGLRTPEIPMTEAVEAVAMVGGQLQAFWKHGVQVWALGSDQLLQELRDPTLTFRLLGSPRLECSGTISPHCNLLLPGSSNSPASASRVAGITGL
pIC50: −log10 of the molar value.
reported endpoint: pIC50

Reported HPK1 (Homo sapiens (Human), UniProt Q92918) pIC50 for item CO[C@H]1CC[C@H](c2ccc(Nc3ccc(-c4cnc5cc(F)ccn45)c4c3C(=O)NC4)nc2CN(C)C)C1 was > 7.00

// data source = patent US11548890B1
